Below is a list of entries, each paired with its recorded Relative activity (%) value.
Biological target: SNDH II (aldehyde dehydrogenase) (Ketogulonicigenium vulgare)
Test: Effect of inhibitors and metals on L-sorbosone dehydrogenase activity, photometrical DCIP assay
Format: biochemical, Gluconobacter oxydans DSM No. 4025 (FERM BP-3812)
Conditions: compound at 1.0 mM; None = 100.0
READOUT_NAME: Relative activity (%)

>>> data_value("O.O.O.O.O.O.O=S(=O)([O-])[O-].[Ni+2]")
82.9
>>> data_value("[Cl-].[Cl-].[Mg+2]")
88.5
>>> data_value("O.O.[Ca+2].[Cl-].[Cl-]")
94.7
>>> data_value("[Cl-].[Cl-].[Zn+2]")
64.9
>>> data_value("O=S(=O)([O-])[O-].O=S(=O)([O-])[O-].O=S(=O)([O-])[O-].[Fe+3].[Fe+3] [Fe2(SO4)3.xH2O]")
73.2
>>> data_value("[Cl][Ti]([Cl])([Cl])[Cl]")
95.9
>>> data_value("O.O.O.O.O.O.[Cl-].[Cl-].[Co+2]")
60.8

* * *

Target: SNDH II (aldehyde dehydrogenase) (Ketogulonicigenium vulgare, UniProt Q402A8)
Sequence (Q402A8 entry or part of it): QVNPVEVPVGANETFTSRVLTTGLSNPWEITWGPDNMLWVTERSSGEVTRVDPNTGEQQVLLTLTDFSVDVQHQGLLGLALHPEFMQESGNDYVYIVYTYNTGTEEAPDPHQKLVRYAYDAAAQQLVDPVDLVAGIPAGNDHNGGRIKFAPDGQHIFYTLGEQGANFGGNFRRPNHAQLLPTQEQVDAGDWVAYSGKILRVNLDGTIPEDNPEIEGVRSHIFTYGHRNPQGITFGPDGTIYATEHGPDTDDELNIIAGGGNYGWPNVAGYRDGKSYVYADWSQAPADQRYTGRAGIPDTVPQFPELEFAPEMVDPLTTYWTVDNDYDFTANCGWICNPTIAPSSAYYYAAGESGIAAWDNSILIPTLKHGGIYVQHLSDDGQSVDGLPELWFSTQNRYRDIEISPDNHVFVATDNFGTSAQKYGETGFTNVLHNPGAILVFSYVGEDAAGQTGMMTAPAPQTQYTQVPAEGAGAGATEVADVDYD
Assay: Substrate specificity of the purified enzyme, photometrical DCIP assay
Format: biochemical, Gluconobacter oxydans DSM No. 4025 (FERM BP-3812)
Conditions: pH 7.5, 100 mM potassium phosphate; L-sorbosone and D-glucosone 2 mM, other substrates 100 mM; L-sorbosone = 100
READOUT_NAME: Relative activity (%)

>>> data_value("O=C1O[C@H]([C@@H](O)CO)[C@H](O)[C@@H]1O")
"<1%"
>>> data_value("OC[C@@H](O)[C@@H](O)[C@H](O)[C@@H](O)CO")
"<1%"
>>> data_value("O=CC(=O)[C@@H](O)[C@H](O)[C@@H](O)CO")
"100%"
>>> data_value("O=CC(=O)[C@@H](O)[C@H](O)[C@H](O)CO")
"483%"
>>> data_value("O=C(CO)[C@@H](O)[C@H](O)[C@@H](O)CO")
"<1%"

* * *

Molecular target: SNDH II (aldehyde dehydrogenase) (Ketogulonicigenium vulgare)
Assay: Substrate specificity of the purified enzyme, photometrical DCIP assay
Assay type: biochemical, Gluconobacter oxydans DSM No. 4025 (FERM BP-3812)
Details: pH 9.0, 100 mM Tris-HCl; L-sorbosone and D-glucosone 2 mM, other substrates 100 mM; L-sorbosone = 100
READOUT_NAME: Relative activity (%)

>>> data_value("OC[C@@H](O)[C@@H](O)[C@H](O)[C@@H](O)CO [D-Sorbitol]")
"<1%"
>>> data_value("O=CC(=O)[C@@H](O)[C@H](O)[C@@H](O)CO [L-Sorbosone]")
"100%"
>>> data_value("O=C(CO)[C@@H](O)[C@H](O)[C@@H](O)CO [L-Sorbose]")
"<1%"
>>> data_value("O=C1O[C@H]([C@@H](O)CO)[C@H](O)[C@@H]1O [L-Gulono-γ-lactone]")
"<1%"

* * *

Molecular target: SNDH II (aldehyde dehydrogenase) (Ketogulonicigenium vulgare)
Experiment: Effect of inhibitors and metals on L-sorbosone dehydrogenase activity, photometrical DCIP assay
Type: biochemical, Gluconobacter oxydans DSM No. 4025 (FERM BP-3812)
Details: metal ions, 1.0 mM
READOUT_NAME: Effect on the enzyme activity

>>> data_value("O=S(=O)([O-])[O-].O=S(=O)([O-])[O-].O=S(=O)([O-])[O-].[Fe+3].[Fe+3] [Fe2(SO4)3.xH2O]")
"inhibited"
>>> data_value("O=S(=O)([O-])[O-].[Cu+2]")
"inhibited"
>>> data_value("[Cl-].[Cl-].[Zn+2]")
"inhibited"
>>> data_value("O.O.O.O.O.O.O=S(=O)([O-])[O-].[Ni+2]")
"inhibited"
>>> data_value("O.O.O.O.O.O.[Cl-].[Cl-].[Co+2]")
"inhibited"
